- Test system: HCT116 cells
- assay_explanation: Inhibition of proliferation of the human colon tumor line HCT116 ([14C]-thymidine incorporation)
- Type: cell-based
- run_conditions: Homo sapiens, HCT-116, 48 h, 48 hours at 37° C., read-out: Inhibition of HCT116 proliferation IC 50 (μm)
Values of IC50 strictly less than 600 nM map to Fulfilled, and values of at least 600 nM map to Not fulfilled.

O=C(c1cc(Br)nn1-c1ccccc1)N1CCN(c2cccc(Cl)c2)CC1 = Fulfilled

Task: Record `Cc1cc(C(=O)N2CCN(c3ccccc3)CC2)n(-c2ccc(F)cc2)n1` : is its IC50 strictly below 600 nM?
Output: Fulfilled

Task: Please let me know if `Cc1cc(C(=O)N2CCN(c3ccccc3C(F)(F)F)CC2)n(-c2ccccc2)n1` shows IC50 below 600 nM.
Output: Fulfilled

Task: Strictly below 600 nM in IC50? `O=C(c1cc(-c2cccs2)nn1-c1ccccc1)N1CCN(c2cccc(Cl)c2)CC1`
Output: Not fulfilled

Task: Dear colleague, could you confirm whether IC50 of `COc1cc(OC)cc(N2CCN(C(=O)c3cc(Br)nn3-c3ccccc3)CC2)c1` falls below 600 nM? Thanks.
Output: Fulfilled

---

- subject_of_test: tubulin (Sus scrofa, UniProt P02550+P02554)
- Construct: Tubulin is purified from pig brain according to published methods
- Sequence (P02550 whole entry): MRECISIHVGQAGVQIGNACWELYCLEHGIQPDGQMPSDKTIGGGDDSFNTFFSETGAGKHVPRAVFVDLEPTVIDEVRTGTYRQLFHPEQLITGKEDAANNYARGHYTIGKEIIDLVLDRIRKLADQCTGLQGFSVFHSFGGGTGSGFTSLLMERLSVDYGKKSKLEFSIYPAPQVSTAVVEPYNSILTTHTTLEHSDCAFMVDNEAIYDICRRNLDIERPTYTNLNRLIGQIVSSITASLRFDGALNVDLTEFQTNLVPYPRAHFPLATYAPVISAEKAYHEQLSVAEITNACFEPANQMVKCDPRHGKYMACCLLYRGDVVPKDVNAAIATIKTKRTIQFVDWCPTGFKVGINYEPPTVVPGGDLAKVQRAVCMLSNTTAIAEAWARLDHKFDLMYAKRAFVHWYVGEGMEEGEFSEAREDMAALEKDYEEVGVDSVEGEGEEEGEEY
- Sequence (P02554 whole entry): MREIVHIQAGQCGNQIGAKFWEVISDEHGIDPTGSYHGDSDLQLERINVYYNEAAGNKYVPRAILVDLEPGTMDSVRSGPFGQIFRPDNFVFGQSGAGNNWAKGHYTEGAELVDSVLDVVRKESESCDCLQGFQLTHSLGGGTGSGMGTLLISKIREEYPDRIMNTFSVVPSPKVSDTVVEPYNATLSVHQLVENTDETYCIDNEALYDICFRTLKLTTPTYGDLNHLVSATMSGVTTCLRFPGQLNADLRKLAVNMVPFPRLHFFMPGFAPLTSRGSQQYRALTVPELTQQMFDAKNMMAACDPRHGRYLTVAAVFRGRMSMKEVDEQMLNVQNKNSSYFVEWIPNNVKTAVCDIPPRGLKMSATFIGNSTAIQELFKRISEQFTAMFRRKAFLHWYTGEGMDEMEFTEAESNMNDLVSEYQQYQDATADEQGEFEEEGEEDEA
- assay_explanation: Evaluation of the inhibition of tubulin polymerization (turbidimetry)
- run_conditions: tubulin 10 μm (1 mg/ml), 37° C., turbidity at 350 nm; concentration that inhibits the rate of polymerization by 50%; read-out: Inhibition of tubulin polymerization IC 50 (μm)
quantity: pIC50
Please note pIC50 is a logarithmic value: minus log10 of concentration in mol/L. Answer with that number alone.

Some solved entries appear below for comparison.
Cc1cc(C(=O)N2CCN(c3cc(Cl)ccc3C)CC2)n(-c2ccccc2)n1 = 5.52
Cc1cc(C(=O)N2CCN(c3cccc(Cl)c3)CC2)n(-c2ccccn2)n1 = 5.72
O=C(c1cc(COCc2ccccc2)nn1-c1ccccc1)N1CCN(c2cccc(Cl)c2)CC1 = 5.36
Cc1cc(C(=O)N2CC=C(c3ccccc3)CC2)n(-c2ccccc2)n1 = 5.52
Cc1nccn1Cc1cc(C(=O)N2CCN(c3cccc(Cl)c3)CC2)n(-c2ccccc2)n1 = 5.29

Task: Need pIC50, item `Cc1cc(C(=O)N2CCN(c3ccc4c(c3)OCCO4)CC2)n(-c2ccc(F)cc2)n1`
Output: 5.22

Task: Suppose we examine the molecule `CCc1ccccc1N1CCN(C(=O)c2cc(C)nn2-c2cccc(F)c2)CC1` ; what pIC50 value has been reported?
Output: 5.52

Task: Tell me the measured pIC50 of `C=CCNc1cc(C(=O)N2CCN(c3cc(OC)cc(OC)c3)CC2)n(-c2ccccc2)n1` , please.
Output: 5.82

---

- subject_of_test: tubulin (Sus scrofa, UniProt P02550+P02554)
- Construct: Tubulin is purified from pig brain according to published methods
- assay_explanation: Evaluation of the inhibition of tubulin polymerization (turbidimetry)
- run_conditions: tubulin 10 μm (1 mg/ml), 37° C., turbidity at 350 nm; concentration that inhibits the rate of polymerization by 50%; read-out: Inhibition of tubulin polymerization IC 50 (μm)
quantity: pIC50
The scale used: pIC50 is minus the common logarithm of the concentration in molar units.

Answered cases to consult:
COc1cccc(-n2nc(C)cc2C(=O)N2CCN(c3cccc(C(F)(F)F)c3)CC2)c1 = 5.21
Cc1cc(C(=O)N2CCN(c3cccc(-c4ccccc4)c3)CC2)n(-c2ccccc2)n1 = 5.77
Cc1cc(C(=O)N2CCN(c3ccc(C)c(C)c3)CC2)n(-c2ccccc2F)n1 = 4.90
CCc1ccccc1N1CCN(C(=O)c2cc(C)nn2-c2ccc(F)cc2)CC1 = 5.30

Okay, now this molecule:
Task: Item under review: `Cc1cc(C(=O)N2CCN(c3cccc(C(F)(F)F)c3)CC2)n(-c2ccc(F)cc2)n1` . Reported pIC50?
Output: 5.52

---

pIC50 listing for selected compounds.
- subject_of_test: tubulin (Sus scrofa, UniProt P02550+P02554)
- Construct: Tubulin is purified from pig brain according to published methods
- assay_explanation: Evaluation of the inhibition of tubulin polymerization (turbidimetry)
- run_conditions: tubulin 10 μm (1 mg/ml), 37° C., turbidity at 350 nm; concentration that inhibits the rate of polymerization by 50%; read-out: Inhibition of tubulin polymerization IC 50 (μm)
// pIC50: -log10(molar conc.)

Task: What does the record list as pIC50 for CCc1ccccc1N1CCN(C(=O)c2cc(C)nn2-c2cccc(OC)c2)CC1 [3/136] ?
Output: 4.90

Task: # lookup: pIC50 of Cc1cc(C(=O)N2CCN(c3ccc(Cl)c(Cl)c3)CC2)n(-c2cccc(Cl)c2)n1 [3/65]
Output: 5.89

Task: Recorded pIC50 for COc1ccc(Cl)cc1N1CCN(C(=O)c2cc(C)nn2-c2ccc(Cl)cc2)CC1 [3/75] , please?
Output: 4.77

Task: Return reported pIC50; argument: COc1cccc(-n2nc(C)cc2C(=O)N2CCN(c3cc(Cl)ccc3C)CC2)c1 [3/4]
Output: 5.74

---

- Tested on: HCT116 cells
- assay_explanation: Inhibition of proliferation of the human colon tumor line HCT116 ([14C]-thymidine incorporation)
- Format: cell-based
- run_conditions: Homo sapiens, HCT-116, 48 h, 48 hours at 37° C., read-out: Inhibition of HCT116 proliferation IC 50 (μm)
quantity: pIC50
Reminder that pIC50 means the negative base-10 logarithm of the concentration expressed in mol/L.

Task: Requested field: pIC50. Item: Cc1cccc(-n2nc(C)cc2C(=O)N2CCN(c3cccc(Cl)c3)CC2)c1 [3/31]
Output: 6.85

Task: Need pIC50 of Cc1cc(C(=O)N2CCN(c3cccc(C(F)(F)F)c3)CC2)n(-c2cccc(Cl)c2)n1 [3/121] , thanks.
Output: 7.29

Task: Returns the measured pIC50 for the input compound. Input: Cc1cc(C(=O)N2CCN(c3cccc(Cl)c3Cl)CC2)n(-c2cccc(Cl)c2)n1 [3/125]
Output: 6.83

Task: For the compound Cc1cc(C(=O)N2CCN(c3cccc(Cl)c3Cl)CC2)n(-c2cccc(F)c2)n1 [3/99] , what pIC50 is on record?
Output: 7.39

Task: I have this compound here, Cc1cc(C(=O)N2CCN(c3cccc(S(C)(=O)=O)c3)CC2)n(-c2ccccc2)n1 [Example E26] , and I need its recorded pIC50.
Output: 6.87

Task: Given Cc1cc(C(=O)N2CCN(c3ccccc3)CC2)n(-c2ccccn2)n1 [Example E21] , state its recorded pIC50.
Output: 6.70

Task: # lookup: pIC50 of Cc1cc(C(=O)N2CCN(c3cncc(Cl)c3)CC2)n(-c2ccccc2)n1 [Example E33]
Output: 8.05

Task: Fill in the blank: the reported pIC50 of COc1cc(OC)cc(N2CCN(C(=O)c3cc(N)nn3-c3ccccc3)CC2)c1 [Example E99] is ____.
Output: 8.62

Task: Endpoint output: pIC50 of COc1ccc(-n2nc(C)cc2C(=O)N2CCN(c3cccc(Cl)c3)CC2)cc1 [3/39] . Value?
Output: 6.13

---

- System: HCT116 cells
- assay_explanation: Inhibition of proliferation of the human colon tumor line HCT116 ([14C]-thymidine incorporation)
- Assay type: cell-based
- run_conditions: Homo sapiens, HCT-116, 48 h, 48 hours at 37° C., read-out: Inhibition of HCT116 proliferation IC 50 (μm)
Response field label takes T when IC50 is strictly below 70 nM and F in all other cases.

Cc1cc(C(=O)N2CCN(c3cccc4ccccc34)CC2)n(-c2ccccc2)n1 = F

Task: Criterion: IC50 strictly below 70 nM. Is it met by `Cc1cc(C(=O)N2CCN(c3ccccc3C)CC2)n(-c2ccc(F)cc2)n1` ?
Output: F

Task: Threshold test, IC50 < 70 nM: `COc1cccc(N2CCN(C(=O)c3cc(C)nn3-c3ccc(F)cc3)CC2)c1`
Output: T

Task: Strictly below 70 nM in IC50? Cc1cc(C(=O)N2CCN(c3cc(Cl)cc(Cl)c3)CC2)n(-c2ccccc2)n1 [Example E2]
Output: T

Task: Regarding `Cc1cc(C(=O)N2CCN(c3ccc(Cl)c(Cl)c3)CC2)n(-c2ccc(F)cc2)n1` , kindly confirm whether its IC50 is beneath 70 nM.
Output: T

Task: Hi there! Is IC50 for `O=C(c1cc(-c2ccccc2)nn1-c1ccccc1)N1CCN(c2cccc(Cl)c2)CC1` below 70 nM, do you know?
Output: F

---

- Test system: HCT116 cells
- assay_explanation: Inhibition of proliferation of the human colon tumor line HCT116 ([14C]-thymidine incorporation)
- Type: cell-based
- run_conditions: Homo sapiens, HCT-116, 48 h, 48 hours at 37° C., read-out: Inhibition of HCT116 proliferation IC 50 (μm)
- Method: The proliferation of HCT116 cells is evaluated by measuring the incorporation of [^14C]-thymidine in the following manner. […] [^14C]-thymidine (0.1 μCi/well) and the products to be evaluated are then added. […] 48 hours after incubation at 37° C., the radioactivity incorporated into the cells is measured by counting the plate in a TRI-LUX counter (Wallac). […]
This listing pairs compounds with measured IC50.

Worked examples, 2 compounds total:
COc1cc(OC)cc(N2CCN(C(=O)c3cc(C(Br)Br)nn3-c3ccccc3)CC2)c1 = 318 nM
COc1cc(OC)cc(N2CCN(C(=O)c3cc(C)nn3-c3cccnc3)CC2)c1 = 11.1 nM

Then there is this compound:
Task: What IC50 value was documented for this compound, `Cc1cc(C(=O)N2CCN(c3cccc(F)c3)CC2)n(-c2ccccc2)n1` ?
Output: 6.3 nM
